# Tgt: Cannabinoid receptor 2 (Homo sapiens)
# Sequence (P34972 whole entry): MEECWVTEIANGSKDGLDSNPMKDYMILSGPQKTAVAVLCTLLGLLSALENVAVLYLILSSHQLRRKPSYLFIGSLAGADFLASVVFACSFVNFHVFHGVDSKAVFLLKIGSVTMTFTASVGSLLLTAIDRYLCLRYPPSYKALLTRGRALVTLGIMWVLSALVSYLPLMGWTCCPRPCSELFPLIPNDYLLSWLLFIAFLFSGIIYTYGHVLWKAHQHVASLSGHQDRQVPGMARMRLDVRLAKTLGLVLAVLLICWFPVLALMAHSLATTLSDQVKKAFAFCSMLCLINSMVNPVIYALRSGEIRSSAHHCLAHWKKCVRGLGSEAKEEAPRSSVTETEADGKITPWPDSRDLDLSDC
# Measurement description: Displacement of [3H]CP-55,940 from human recombinant CB2R expressed in HEK-293 cells after 90 mins by liquid scintillation counting
# Parameters: species or system HEK293
Reported endpoint: IC50 (nM)
Write the number in nM without appending the unit.

A selection of reference data follows.
molecule="CC1CCC(NC(=O)c2cc3cc(Br)cnc3n(Cc3ccc(F)cc3)c2=O)CC1 (centres undefined)" reported_endpoint=IC50 unit_of_measure=nM test_value=0.72
molecule="CC1CCC(NC(=O)c2cc3cccnc3n(CCCCO)c2=O)CC1 (centres undefined)" reported_endpoint=IC50 unit_of_measure=nM test_value=210
molecule="CC1CCC(NC(=O)c2cc3cccnc3n(CCCCF)c2=O)CC1 (centres undefined)" reported_endpoint=IC50 unit_of_measure=nM test_value=5.35

Now consider a different molecule.
Input: May I ask what IC50 has been recorded for CC1CCC(NC(=O)c2cc3cccnc3n(Cc3ccc(F)cc3)c2=O)CC1 (centres undefined) ?
Output: 1.37

Numbers sourced from ChEMBL document CHEMBL3352718.
